# systemUnderTest: Ephrin type-B receptor 2 (Homo sapiens) (UniProt P29323);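 further: reported as mean inhibition of EPHB2, from the GSK PKIS dataset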
# Sequence (P29323 whole entry): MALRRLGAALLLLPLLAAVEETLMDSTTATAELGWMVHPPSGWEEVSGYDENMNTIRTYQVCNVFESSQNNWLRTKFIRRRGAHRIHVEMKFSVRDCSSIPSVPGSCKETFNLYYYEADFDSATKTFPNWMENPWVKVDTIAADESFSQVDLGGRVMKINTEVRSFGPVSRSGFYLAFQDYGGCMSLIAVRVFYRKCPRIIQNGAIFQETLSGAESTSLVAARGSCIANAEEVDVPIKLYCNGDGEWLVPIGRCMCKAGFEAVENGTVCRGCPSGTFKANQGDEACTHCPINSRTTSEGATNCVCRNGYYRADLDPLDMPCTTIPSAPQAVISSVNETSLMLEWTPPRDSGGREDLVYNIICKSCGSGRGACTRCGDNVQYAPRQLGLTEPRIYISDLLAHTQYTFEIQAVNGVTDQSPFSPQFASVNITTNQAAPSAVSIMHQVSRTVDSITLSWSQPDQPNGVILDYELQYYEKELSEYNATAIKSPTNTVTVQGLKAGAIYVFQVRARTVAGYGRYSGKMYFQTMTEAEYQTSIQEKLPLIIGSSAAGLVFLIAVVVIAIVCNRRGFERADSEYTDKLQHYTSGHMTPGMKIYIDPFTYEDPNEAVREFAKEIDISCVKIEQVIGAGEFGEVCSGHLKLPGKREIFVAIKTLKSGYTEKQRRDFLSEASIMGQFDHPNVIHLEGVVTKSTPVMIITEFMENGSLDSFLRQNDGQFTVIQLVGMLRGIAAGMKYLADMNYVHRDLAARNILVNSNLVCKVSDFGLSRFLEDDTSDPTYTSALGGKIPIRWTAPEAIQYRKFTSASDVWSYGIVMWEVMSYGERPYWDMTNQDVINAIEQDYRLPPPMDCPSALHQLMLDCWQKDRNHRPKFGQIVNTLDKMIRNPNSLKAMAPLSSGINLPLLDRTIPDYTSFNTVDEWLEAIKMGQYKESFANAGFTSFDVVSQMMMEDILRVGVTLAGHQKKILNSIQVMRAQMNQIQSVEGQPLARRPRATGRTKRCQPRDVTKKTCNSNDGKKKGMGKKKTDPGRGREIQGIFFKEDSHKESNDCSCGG
# setupConditions: at 0.1 µM
experimentalReadout: inhibition (%)

* CN(C)c1cc2c(Nc3ccc4nc(Cc5ccccc5)[nH]c4c3)ncnc2cn1 | 9.32
* CS(=O)(=O)Nc1ccc(N/C=C2\C(=O)Nc3ccccc32)cc1 | -6.42
* COc1cc2ncn(-c3cc(O[C@H](C)c4ccccc4Cl)c(C(N)=O)s3)c2cc1OC | 16.6
* CC(C)=Cc1cccc2c1/C(=N/Nc1ccc(S(N)(=O)=O)cc1)C(=O)N2 | 1.72
* COc1cc(C)c(NC(=O)CN(C)C)cc1Nc1nc(Nc2cccc(F)c2C(N)=O)c2cc[nH]c2n1 | 4.98

Recorded values, source ChEMBL document CHEMBL1961873.
